system: XF 498 CNS; assay: NCI tumour cell line growth inhibition, 48 h
Would you mind telling me the reported TGI of each entry?

| MOLECULE | ASSAY RESULT |
| --- | --- |
| CC1(C)O[C@H]2OC3CCC(=O)CC3(O)[C@H]2O1 (stereo partly specified) | 97.2 µM |

Value sought for every listed molecule: TGI.
1. CSc1nc2c(c(O)c(C)c(=O)n2C2OC(COC(C)=O)C(OC(C)=O)C(OC(C)=O)C2OC(C)=O)c(=O)n1C (stereo unspecified)
2. CC(C)N(C(=O)C12C3C4C1C1C2C3C41C(O)C(C)(C)C)C(C)C (stereo unspecified)
3. CCC1(Br)C(=O)NC(=O)N(C2CC(O)C(CO)O2)C1N=[N+]=[N-] (stereo unspecified)
4. O=C(CCc1nc(=S)[nH][nH]1)NC12CC3CC(CC(C3)C1)C2
5. CC(C)c1cccc(C(C)C)c1NC(=O)C(=O)C(C(=O)c1ccccc1-c1ccccc1)C1OC(=O)c2ccccc21 (stereo unspecified)

-- reply
> 100 µM
> 50 µM
> 100 µM
> 100 µM
26 µM

The origin of these recorded values is PubChem BioAssay (NCI).
